Test system: A549 (Lung)
experiment_notes: Antiproliferative SRB assay
Assay type: cell-based, human
setup_conditions: Homo sapiens, A549, mean ± SD of at least two experiments
property: GI50 (µM)
Express it in µM; write the number only.

INSERT INTO results (compound, observed) VALUES
  ('CC(C)c1cc2c(cc1O)[C@@]1(C)CCC[C@](C)(CO)[C@@H]1CC2 [Compound 14, 19-hydroxyferruginol]', 1.8),
  ('COC(=O)[C@@]1(C)CCC[C@]2(C)c3cc(O)c(C(C)C)cc3CC[C@@H]12', 2.3),
  ('COC(=O)[C@@]1(C)CCC[C@]2(C)c3cc(OC(C)=O)c(C(C)C)cc3CC[C@@H]12', 6.5);

// query GI50 value for entry `COC(=O)[C@@]1(C)CCC[C@]2(C)c3cc(O)c(C(C)C)cc3C(=O)C[C@@H]12`
11

Then what about the compound CC(C)c1cc2c(cc1O)C1(C)CCCC(C)(C(=O)O)C1CC2=O (single isomer, unassigned; (+)) [Compound 8a, (+)-4-epi-liquiditerpenoic acid A] ?
12
